# Tested on: PCSK9 gene
# Test details: PCSK9 gRNA/SpCas9 editing in primary cynomolgus hepatocytes (Tables 2, 22)
# Assay type: cell-based, cynomolgus monkey
# Settings: 100 ng/RNA/mL; SpCas9 mRNA MS002 1:1 by weight
In the oligonucleotide strings, read from the 5' end, every base follows the letter of its sugar. An asterisk marks phosphorothioate; unmarked linkages are phosphodiester. Other units and linkages are bracketed, terminal groups are in braces. A string of capitals states the bases alone. m = 2'-O-methyl; r = 2'-OH (RNA)
# maps each entry to its Cyno Primary Hepatocyte Editing % 100
Endpoint label: Cyno Primary Hepatocyte Editing % 100 (%)

* GA198: PCSK9 gRNA; protospacer CCACCGGGAAATCGAGGGCA (SEQ ID NO: 192) (nucleic acid, sugars from the 5' end m3 r94 m3, linkages s3 o93 s3 (s phosphorothioate, o phosphodiester), T or U not given here) guide: CCACCGGGAAAUCGAGGGCAGUUUUAGAGCUAGAAAUAGCAAGUUAAAAUAAGGCUAGUCCGUUAUCAACUUGAAAAAGUGGCACCGAGUCGGUGCUUUU | 3.53
* GA188: PCSK9 gRNA; protospacer TATTCATCCGCCCGGTACCG (SEQ ID NO: 182) (nucleic acid) guide: mU*mA*mU*rUrCrArUrCrCrGrCrCrCrGrGrUrArCrCrGrGrUrUrUrUrArGrArGrCrUrArGrArArArUrArGrCrArArGrUrUrArArArArUrArArGrGrCrUrArGrUrCrCrGrUrUrArUrCrArArCrUrUrGrArArArArArGrUrGrGrCrArCrCrGrArGrUrCrGrGrUrGrCrU*mU*mU*mU | 0.01
* GA194: PCSK9 gRNA; protospacer GTCGACATGGGGCAACTTCA (SEQ ID NO: 188) (nucleic acid, sugars from the 5' end m3 r94 m3, linkages s3 o93 s3 (s phosphorothioate, o phosphodiester), T or U not given here) guide: GUCGACAUGGGGCAACUUCAGUUUUAGAGCUAGAAAUAGCAAGUUAAAAUAAGGCUAGUCCGUUAUCAACUUGAAAAAGUGGCACCGAGUCGGUGCUUUU | 2.38

Where these numbers come from: patent US20250152746A1
